Biological target: cynomolgus LIV-1 (cynomolgus, UniProt A0A2K5WH46 30-741)
Sequence (A0A2K5WH46 entry or part of it): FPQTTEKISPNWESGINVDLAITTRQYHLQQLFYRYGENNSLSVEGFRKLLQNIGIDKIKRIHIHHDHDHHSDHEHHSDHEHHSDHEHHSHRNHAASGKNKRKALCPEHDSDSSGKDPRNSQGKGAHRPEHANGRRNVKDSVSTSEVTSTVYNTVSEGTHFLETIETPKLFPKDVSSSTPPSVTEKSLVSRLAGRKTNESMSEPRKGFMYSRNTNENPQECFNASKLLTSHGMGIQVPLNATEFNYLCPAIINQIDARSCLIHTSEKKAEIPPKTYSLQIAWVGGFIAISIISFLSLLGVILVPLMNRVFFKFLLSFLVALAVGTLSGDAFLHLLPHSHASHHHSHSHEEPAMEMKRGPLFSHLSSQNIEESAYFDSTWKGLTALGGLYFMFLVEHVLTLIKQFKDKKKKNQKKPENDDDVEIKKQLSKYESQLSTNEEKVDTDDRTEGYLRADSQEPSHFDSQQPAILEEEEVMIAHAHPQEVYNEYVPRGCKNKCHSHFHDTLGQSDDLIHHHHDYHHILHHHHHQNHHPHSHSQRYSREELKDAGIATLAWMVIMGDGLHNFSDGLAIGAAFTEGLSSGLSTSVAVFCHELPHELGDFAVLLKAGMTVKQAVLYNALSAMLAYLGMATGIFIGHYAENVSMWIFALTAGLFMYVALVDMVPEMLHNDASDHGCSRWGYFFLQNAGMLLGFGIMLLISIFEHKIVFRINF
Test: FACS, HEK293/Cyno_LIV-1 cells
Top (MFI) values, listed per item
A number alone suffices; assume MFI.

Before answering, review these 2 worked examples.
binder | unit info | Top (MFI)
47G1B10 (antibody, V domains shown, Tested as chimeric antibody) VH: QVQLKQSGPGLVQPSQSLSITCTVSGFSLTTYGVHWVRQSPGKGLEWLGVIWTGGTTDYNAAFISRLSISKDNSKSQVFFKMNSLQANDTAIYYCARGPSSYWGQGTLVTVSA VL: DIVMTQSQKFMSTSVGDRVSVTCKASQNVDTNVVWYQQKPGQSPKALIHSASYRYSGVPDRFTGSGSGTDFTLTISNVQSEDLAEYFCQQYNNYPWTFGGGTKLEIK | MFI | 36700
99B3E8 (antibody, V domains shown, Tested as chimeric antibody) VH: EVQLQQSGTVLARPGTSVKMSCKASGYTFINYWMHWVRQRPGQGLEWIGAFYPGNSDTSYNQNFKDKAKLTAVTSTSTAYMEFSSLTNEDSAVYYCTRDFTAVPFFDYWGQGTTLTVSS VL: DVLMTQTPLSLPVSLGDQASISCRSSQSIVHSNGNTYLEWYLQKPGQSPKLLIYKVSNRFSGVPDRFSGSGSGTDFTLKISRVEAEDLGVYYCFQGSYVPLTFGVGTKLELK | MFI | 8240

Exercise: Can you look up the measured Top (MFI) of 124H4D11 (antibody, V domains shown, Tested as chimeric antibody) VH: EVPLQQSGAELVRSGASVKLSCTASGFNIKDYYMHWVKQRPEQGLEWIGWIDPENGDTEYDPKFQGKATMTADTSSNTADLQLSSLTSEDTAVYYCNARYYAFDYWGQGTTLTVSS VL: DVLMTQTPLSLPVSLGDQASISCRSSQSIVHSNGNTYLEWYLQKPGQSPKLLIYKVSNRFSGVPDRFSGSGSGTEFTLKISRVEAEDLGVYYCFQGSQVPPTFGGGTRLEIK for me?
Key: 3370
